Where do these numbers come from? They come from BindingDB's records for doi:10.1016/j.bioorg.2016.08.011.

molecular target: Alpha-glucosidase MAL12 (Saccharomyces cerevisiae (strain ATCC 204508 / S288c), UniProt P53341); test: α-Glucosidase inhibition assay; conditions: pH 6.8
Sequence (P53341 whole entry): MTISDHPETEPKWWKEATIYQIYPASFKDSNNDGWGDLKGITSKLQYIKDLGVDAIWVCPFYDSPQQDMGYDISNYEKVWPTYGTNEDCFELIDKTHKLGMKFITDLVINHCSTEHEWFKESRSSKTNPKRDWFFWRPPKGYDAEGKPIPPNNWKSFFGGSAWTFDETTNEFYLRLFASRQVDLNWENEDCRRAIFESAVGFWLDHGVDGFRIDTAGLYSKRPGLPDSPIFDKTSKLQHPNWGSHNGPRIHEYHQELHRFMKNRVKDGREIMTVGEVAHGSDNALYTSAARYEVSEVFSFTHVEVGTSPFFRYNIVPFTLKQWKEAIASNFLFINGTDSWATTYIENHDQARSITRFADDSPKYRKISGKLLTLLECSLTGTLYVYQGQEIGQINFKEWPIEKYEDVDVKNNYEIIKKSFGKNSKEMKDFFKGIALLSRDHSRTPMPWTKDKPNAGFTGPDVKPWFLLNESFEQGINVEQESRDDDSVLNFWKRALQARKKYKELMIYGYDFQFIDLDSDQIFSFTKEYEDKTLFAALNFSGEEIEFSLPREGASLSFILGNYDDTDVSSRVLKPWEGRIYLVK
pIC50: −log10 of the molar value.
Metric Name: pIC50

{"Structure Smiles String": "Clc1ccc(Cc2nc3ccccc3n2Cc2nnc(Nc3ccccc3)s2)c(Cl)c1", "Number": 3.80}
{"Structure Smiles String": "Sc1nnc(Cn2c(Cc3ccc(Cl)cc3Cl)nc3ccccc32)o1", "Number": 3.60}
{"Structure Smiles String": "O=C(Cn1c(Cc2ccc(Cl)cc2Cl)nc2ccc([N+](=O)[O-])cc21)NNC(=S)Nc1ccccc1", "Number": 4.03}
{"Structure Smiles String": "O=[N+]([O-])c1ccc2nc(Cc3ccc(Cl)cc3Cl)n(Cc3nnc(S)o3)c2c1", "Number": 4.57}
{"Structure Smiles String": "O=[N+]([O-])c1cccc2nc(Cc3ccc(Cl)cc3Cl)n(Cc3nnc(S)n3-c3ccccc3)c12", "Number": 4.39}
{"Structure Smiles String": "NNC(=O)Cn1c(Cc2ccc(Cl)cc2Cl)nc2ccc([N+](=O)[O-])cc21", "Number": 4.98}
{"Structure Smiles String": "O=C(Cn1c(Cc2ccc(Cl)cc2Cl)nc2ccccc21)NNC(=S)Nc1ccccc1", "Number": 3.85}
